- EXPERIMENTAL PROTOCOL: Permeability from basal to apical side of RRCK cells at 2 uM
- Type: ADME, cell-based, Canis lupus familiaris, MDCKII-LE
- MEASUREMENT SETUP: dog, MDCK; read-out: permeability
MEASUREMENT NAME: Papp B→A at 2 µM (×10⁻⁶ cm/s)

{"columns": ["COMPOUND", "VALUE UNIT", "EXPERIMENTAL RESULT"],
 "data": [
  ["O=C(OC1CCOCC1)[C@H]1C[C@]2(CN1)C(=O)Nc1ccccc12", "×10⁻⁶ cm/s", 25],
  ["O=C1Nc2ccccc2[C@@]12CN[C@@H](CNCc1ccccc1)C2", "×10⁻⁶ cm/s", 13.5],
  ["COC(=O)N1CCC(OC(=O)[C@H]2C[C@]3(CN2)C(=O)Nc2ccccc23)CC1", "×10⁻⁶ cm/s", 20.9],
  ["COC(=O)[C@H]1C[C@]2(CN1)C(=O)Nc1ccccc12", "×10⁻⁶ cm/s", 29.5],
  ["N#CC1(OC(=O)[C@H]2C[C@]3(CN2)C(=O)Nc2ccccc23)CCCCC1", "×10⁻⁶ cm/s", 22.7],
  ["N#Cc1ccc(COC(=O)[C@H]2C[C@]3(CN2)C(=O)Nc2ccccc23)cc1Br", "×10⁻⁶ cm/s", 10.2],
  ["O=C1Nc2ccccc2[C@@]12CN[C@@H](c1ccccc1)C2 (racemic)", "×10⁻⁶ cm/s", 29.6],
  ["O=C(OCc1ccc(Br)cc1)[C@H]1C[C@]2(CN1)C(=O)Nc1ccccc12", "×10⁻⁶ cm/s", 7.11],
  ["O=C(OC1CCS(=O)(=O)c2ccc(Br)cc21)[C@H]1C[C@]2(CN1)C(=O)Nc1ccccc12 (mixture of isomers)", "×10⁻⁶ cm/s", 49.1],
  ["O=C1Nc2ccccc2[C@@]12CN[C@@H](CCCc1ccccc1)C2", "×10⁻⁶ cm/s", 11.4],
  ["CNC(=O)[C@H]1C[C@]2(CN1)C(=O)Nc1ccccc12", "×10⁻⁶ cm/s", 4.86],
  ["N#Cc1ccc(COC(=O)[C@H]2C[C@]3(CN2)C(=O)Nc2ccccc23)cc1", "×10⁻⁶ cm/s", 18.4],
  ["CN(C(=O)[C@H]1C[C@]2(CN1)C(=O)Nc1ccccc12)C1CCOCC1", "×10⁻⁶ cm/s", 2.92],
  ["O=C(OCc1ccccc1)[C@H]1C[C@]2(CN1)C(=O)Nc1ccccc12", "×10⁻⁶ cm/s", 30.4],
  ["O=C1Nc2ccccc2[C@@]12CN[C@@H](COCc1ccccc1)C2", "×10⁻⁶ cm/s", 23.9]
]}

----------
As shown below, each of these compounds has a reported microsomal CLint value.
- EXPERIMENTAL PROTOCOL: Intrinsic clearance in human liver microsomes assessed per mg of protein
- Assay type: ADME, Microsome
- MEASUREMENT SETUP: read-out: CLH

{"columns": ["COMPOUND", "QUAL", "microsomal CLint [µL/min/mg]"],
 "data": [
  ["O=C1Nc2ccccc2[C@@]12CN[C@@H](CNCc1ccccc1)C2", "=", 76.7],
  ["CNC(=O)[C@H]1C[C@]2(CN1)C(=O)Nc1ccccc12", "=", 14.3],
  ["O=C1Nc2ccccc2[C@@]12CN[C@@H](CCCc1ccccc1)C2", "=", 91.3],
  ["O=C(NCc1ccccc1)[C@H]1C[C@]2(CN1)C(=O)Nc1ccccc12", "=", 15],
  ["CN(C)C(=O)[C@H]1C[C@]2(CN1)C(=O)Nc1ccccc12", "<", 8],
  ["O=C1Nc2ccccc2[C@@]12CN[C@@H](CNCc1cccc(C(F)(F)F)c1)C2", "=", 94.8],
  ["CN(C(=O)[C@H]1C[C@]2(CN1)C(=O)Nc1ccccc12)C1CCOCC1", "<", 8],
  ["O=C1Nc2ccccc2[C@@]12CN[C@@H](COCc1ccccc1)C2", "=", 24.7],
  ["O=C1Nc2ccccc2[C@@]12CN[C@@H](c1ccccc1)C2 (racemic)", "=", 16.6]
]}

----------
- EXPERIMENTAL PROTOCOL: Permeability from apical to basal side of MDCK cells
- Format: ADME, cell-based, Canis lupus familiaris
- MEASUREMENT SETUP: dog, read-out: permeability
MEASUREMENT NAME: Papp A→B (×10⁻⁶ cm/s)

{"columns": ["QUERY SMILES", "VALUE UNIT", "EXPERIMENTAL RESULT"],
 "data": [
  ["O=C1Nc2ccccc2[C@]12CCNC2", "×10⁻⁶ cm/s", 12.2]
]}
